Origin of measurements: PubChem BioAssay AID1159580

assay: chemical genetic growth profiling, strain panel (AID 1159580);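 note: tested at 20 µM; growth read once vehicle control cultures reached saturation at 30 °C; lower values mean less growth of the strain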; conditions: S. cerevisiae deletion strains, growth OD, locus YJR066W, strain TOR1, active compounds read low
Among all 5,500 compounds or so, about 2,000 (36%) were called active. Inconclusive results (about 18%) are left out. The list shows a part of the results.
Rule: measured normalized growth below 0.9 gets YES; anything equal to or greater than 0.9 gets NO.

1. COC(=O)Nc1nc2ccc(Sc3ccccc3)cc2[nH]1	YES
2. CCC(C)C(NC)C(=O)O (centres undefined)	NO
3. Cc1cc(O)c2c(c1)Cc1cccc(O)c1C2=O	NO
4. CC(C)=CCCC1(C)C=Cc2c(O)c3c(c(CC=C(C)C)c2O1)OC12C(CC4CC1C(C)(C)OC2(C/C=C(/C)C(=O)O)C4O)C3=O (centres undefined)	NO
5. CC(C)=CCCC1(C)C=Cc2c(O)c3c(c(CC=C(C)C)c2O1)OC12C(=CC4CC1C(C)(C)OC2(C/C=C(/C)C(=O)O)C4O)C3=O (centres undefined)	NO
6. COC(=O)Nc1nc2ccc(C(=O)c3ccccc3)cc2[nH]1	YES
7. COC(=O)Nc1nc2ccc(S(=O)c3ccccc3)cc2[nH]1 (centres undefined)	NO
8. O=C1c2c(O)cccc2Cc2cccc(O)c21	NO
9. C/C=C(/C)C(=O)O[C@H]1CC[C@@]2(C)[C@@H]3CC[C@H]4[C@]5(O)C[C@H](O)[C@@]6(O)[C@@H](CN7C[C@@H](C)CC[C@H]7[C@@]6(C)O)[C@]5(O)C[C@@]42O[C@]13O	NO
